test system: Setaria cervi; assay: Antifilarial activity against Setaria cervi assessed as change in GSH level at 250 uM after 6 hr by RP-HPLC analysis; type: functional
METRIC: Activity

Give Activity for the following compound: CCOC(=O)CC(NCCCCCCCCCCNC(CC(=O)OCC)[C@@H]1O[C@H]2OC(C)(C)O[C@H]2[C@@H]1OCc1ccccc1)[C@H]1O[C@@H]2OC(C)(C)O[C@@H]2[C@H]1OCc1ccccc1 (stereo partly drawn)
58.17%

Give Activity for the following compound: Cc1cc(=O)oc2cc(OCC(=O)NC3CCCCC3)ccc12
46%

Give Activity for the following compound: Cc1cc(C)c2c(C)cc(=O)oc2c1
65%

Give Activity for the following compound: CC1(C)O[C@@H]2O[C@@H](CNCCCCCCCCCCNC[C@H]3O[C@@H]4OC(C)(C)O[C@@H]4[C@H]3OCc3ccccc3)[C@@H](OCc3ccccc3)[C@@H]2O1
52.5%

Give Activity for the following compound: CO[C@@H]1[C@H]2OC(C)(C)O[C@H]2O[C@@H]1CNCCCCCCCCCCNC[C@@H]1O[C@H]2OC(C)(C)O[C@H]2[C@@H]1OC
33.14%

Give Activity for the following compound: CCOC(=O)CC(NCCCCCCCCCCCCNC(CC(=O)OCC)[C@@H]1O[C@H]2OC(C)(C)O[C@H]2[C@@H]1OC)[C@H]1O[C@@H]2OC(C)(C)O[C@@H]2[C@H]1OC (stereo in doubt)
37.43%

Give Activity for the following compound: CCCCS(=N)(=O)CC[C@H](N)C(=O)O (stereo partly drawn) [BUTHIONINE SULFOXIME]
35.78%

---

tested on: Setaria cervi; experiment: Antifilarial activity against Setaria cervi assessed as change in GSH level at 250 uM after 6 hr by RP-HPLC analysis; assay type: functional
Structures can show the parent of a compound that is named as a salt.
Kindly supply the reported Activity values for the records listed here.
I only need the number, in %, no unit after it.

Provide the reported Activity (system: Setaria cervi) for CCOC(=O)CC(NCCCCCCCNC(CC(=O)OCC)[C@H]1O[C@@H]2OC(C)(C)OC2[C@H]1OCc1ccccc1)C1OC2OC(C)(C)O[C@H]2[C@@H]1OCc1ccccc1 (single isomer, unassigned)
15.9

Provide the reported Activity (system: Setaria cervi) for COC(=O)/C=C\C(=O)OC [DIMETHYL MALEATE]
95.82

Provide the reported Activity (system: Setaria cervi) for CC1=CC(=O)c2ccccc2C1=O [MENADIONE]
96.04

Provide the reported Activity (system: Setaria cervi) for CC1(C)O[C@@H]2O[C@@H](CNCCCCCCCNC[C@H]3O[C@@H]4OC(C)(C)O[C@@H]4[C@H]3OCc3ccccc3)[C@@H](OCc3ccccc3)[C@@H]2O1
69.29
